This collection of values is drawn from patent US20090197856A1.

# STUDY TARGET: HCV-NS5b (Hepatitis C virus genotype 1b, UniProt Q9WMX2)
# Construct: (His)6 (C); made in house; host or cells: XL-1 cells (E. coli), IPTG-inducible plasmid
# ASSAY TEXT: HCV-NS5b enzyme assay using homopolymer substrate
# Type: biochemical
# IC50 values compiled below

| MOLECULE | UNIT STRING | IC50 |
| --- | --- | --- |
| O=C(O)c1ccc2c(C3CCCCC3)c3n(c2c1)CCCn1cc(C(=O)N2CCCC2)c2cccc-3c21 [Compound 437] | nM | 151 |
| O=C(O)c1ccc2c(C3CCCCC3)c3n(c2c1)CCCn1cc(C2=CCNCC2)c2cccc-3c21 [Compound 397] | nM | 218 |
| CN(C)CCNC(=O)c1cn2c3c(cccc13)-c1c(C3CCCCC3)c3ccc(C(=O)O)cc3n1CCC2 [Compound 440] | nM | 107 |
| CC(=O)c1cn2c3c(cccc13)-c1c(C3CCCCC3)c3ccc(C(=O)O)cc3n1CCC2 [Compound 402] | nM | 168 |
| CC(C)NCCC(=O)c1cn2c3c(cccc13)-c1c(C3CCCCC3)c3ccc(C(=O)O)cc3n1CCC2 [Compound 430] | nM | 73 |
| O=C(O)c1ccc2c(C3CCCCC3)c3n(c2c1)CCCn1cc(C(=O)C(=O)N2CCCCC2)c2cccc-3c21 [Compound 114] | nM | 89 |
| CCN(CC)C(=O)c1cn2c3c(cccc13)-c1c(C3CCCCC3)c3ccc(C(=O)O)cc3n1CCC2 [Compound 438] | nM | 69 |
| CN1CCN(C(=O)c2cn3c4c(cccc24)-c2c(C4CCCCC4)c4ccc(C(=O)O)cc4n2CCC3)CC1 [Compound 439] | nM | 182 |
| CC(C)N(C(=O)c1cn2c3c(cccc13)-c1c(C3CCCCC3)c3ccc(C(=O)O)cc3n1CCC2)C(C)C [Compound 441] | nM | 271 |
| CCN(CC)CCC(=O)c1cn2c3c(cccc13)-c1c(C3CCCCC3)c3ccc(C(=O)O)cc3n1CCC2 [Compound 429] | nM | 99 |
| CN1CCN(C(=O)C(=O)c2cn3c4c(cccc24)-c2c(C4CCCCC4)c4ccc(C(=O)O)cc4n2CCC3)CC1 [Compound 123] | nM | 155 |
| CCN(CC)C(=O)C(=O)c1cn2c3c(cccc13)-c1c(C3CCCCC3)c3ccc(C(=O)O)cc3n1CCC2 [Compound 453] | nM | 212 |
| O=C(O)c1ccc2c(C3CCCCC3)c3n(c2c1)CCCn1cc(C(=O)CN2CCCCC2)c2cccc-3c21 [Compound 454] | nM | 348 |
| COCCNC(=O)c1cn2c3c(cccc13)-c1c(C3CCCCC3)c3ccc(C(=O)O)cc3n1CCC2 [Compound 442] | nM | 123 |
| CC(C)NC(=O)c1cn2c3c(cccc13)-c1c(C3CCCCC3)c3ccc(C(=O)O)cc3n1CCC2 [Compound 443] | nM | 121 |

* * *

# STUDY TARGET: HCV-NS5b (Hepatitis C virus genotype 1b, UniProt Q9WMX2)
# Construct: (His)6 (C); made in house; host or cells: XL-1 cells (E. coli), IPTG-inducible plasmid
# ASSAY TEXT: HCV-NS5b enzyme assay using homopolymer substrate
# Assay type: biochemical
# RUN CONDITIONS: homopolymer substrate, [3H]-UTP incorporation, 30° C., 90 minutes; read-out: IC50
# IC50 values compiled below

| SMILES RECORD | STUDY TARGET | UNIT STRING | IC50 |
| --- | --- | --- | --- |
| CC(C)NCCCc1cn2c3c(cccc13)-c1c(C3CCCCC3)c3ccc(C(=O)O)cc3n1CCC2 | HCV-NS5b (Hepatitis C virus genotype 1b, UniProt Q9WMX2) | nM | 181 |
| CC(C)N1CCC(c2cn3c4c(cccc24)-c2c(C4CCCCC4)c4ccc(C(=O)O)cc4n2CCC3)CC1 | HCV-NS5b (Hepatitis C virus genotype 1b, UniProt Q9WMX2) | nM | 250 |
| O=C(O)c1ccc2c(C3CCCCC3)c3n(c2c1)CCCn1cc(C2CCNCC2)c2cccc-3c21 | HCV-NS5b (Hepatitis C virus genotype 1b, UniProt Q9WMX2) | nM | 204 |
| CCN1CCN(Cc2cn3c4c(cccc24)-c2c(C4CCCCC4)c4ccc(C(=O)O)cc4n2CCC3)CC1 | HCV-NS5b (Hepatitis C virus genotype 1b, UniProt Q9WMX2) | nM | 120 |

* * *

# STUDY TARGET: HCV-NS5b (Hepatitis C virus genotype 1b)
# Construct: (His)6 (C); made in house; host or cells: XL-1 cells (E. coli), IPTG-inducible plasmid
# ASSAY TEXT: HCV-NS5b enzyme assay using homopolymer substrate
# Assay type: biochemical
# RUN CONDITIONS: homopolymer substrate, [3H]-UTP incorporation, 30° C., 90 minutes; read-out: IC50

| COMPOUND | IC50 |
| --- | --- |
| O=C(O)c1ccc2c(C3CCCCC3)c3n(c2c1)CCCn1c(CN2CCCCC2)cc2cccc-3c21 | 98 nM |
| CC(C)N1Cc2c(n3c4c(cccc24)-c2c(C4CCCCC4)c4ccc(C(=O)O)cc4n2CCC3)C1=O | 180 nM |
| O=C(O)c1ccc2c(C3CCCCC3)c3n(c2c1)CCCn1ccc2c(Cl)ccc-3c21 | 125 nM |
| O=C(O)c1ccc2c(C3CCCCC3)c3n(c2c1)CCCn1cc(CN[C@H]2CC[C@H](O)CC2)c2cccc-3c21 | 65 nM |
| CN(C)CCc1cn2c3c(cccc13)-c1c(C3CCCCC3)c3ccc(C(=O)O)cc3n1CCC2 | 278 nM |
| CC(C)CNCc1cn2c3c(cccc13)-c1c(C3CCCCC3)c3ccc(C(=O)O)cc3n1CCC2 | 158 nM |
| O=C(O)c1ccc2c(C3CCCCC3)c3n(c2c1)CCN1CCC(NC2CCOCC2)c2cccc-3c21 (stereo not shown) | 59 nM |

* * *

# STUDY TARGET: HCV-NS5b (Hepatitis C virus genotype 1b, UniProt Q9WMX2)
# Construct: (His)6 (C); made in house; host or cells: XL-1 cells (E. coli), IPTG-inducible plasmid
# ASSAY TEXT: HCV-NS5b enzyme assay using homopolymer substrate
# Type: biochemical
# RUN CONDITIONS: homopolymer substrate, [3H]-UTP incorporation, 30° C., 90 minutes; read-out: IC50
pIC50: −log10 of the molar value.
Please note: 1.0 applies when pIC50 is 7 or greater, and 0.0 applies otherwise.

| COMPOUND | STUDY TARGET | CAT |
| --- | --- | --- |
| CON(C)Cc1cn2c3c(cccc13)-c1c(C3CCCCC3)c3ccc(C(=O)O)cc3n1CCC2 | HCV-NS5b (Hepatitis C virus genotype 1b, UniProt Q9WMX2) | 0.0 |
| NC1CCN2CCn3c(c(C4CCCCC4)c4ccc(C(=O)O)cc43)-c3cc(F)cc1c32 (centres unmarked) | HCV-NS5b (Hepatitis C virus genotype 1b, UniProt Q9WMX2) | 1.0 |
| CCN(C)Cc1cn2c3c(cccc13)-c1c(C3CCCCC3)c3ccc(C(=O)O)cc3n1CCC2 [Compound 337] | HCV-NS5b (Hepatitis C virus genotype 1b, UniProt Q9WMX2) | 0.0 |
| O=C(O)c1ccc2c(C3CCCCC3)c3n(c2c1)CCn1cc(CN2CCOCC2)c2cccc-3c21 | HCV-NS5b (Hepatitis C virus genotype 1b, UniProt Q9WMX2) | 1.0 |
| O=C(O)c1ccc2c(C3CCCCC3)c3n(c2c1)CCCn1cc(CCCN2CCCCC2)c2cccc-3c21 | HCV-NS5b (Hepatitis C virus genotype 1b, UniProt Q9WMX2) | 0.0 |

* * *

# STUDY TARGET: HCV-NS5b (Hepatitis C virus genotype 1b)
# Construct: (His)6 (C); made in house; host or cells: XL-1 cells (E. coli), IPTG-inducible plasmid
# ASSAY TEXT: HCV-NS5b enzyme assay using homopolymer substrate
# Type: biochemical
# RUN CONDITIONS: homopolymer substrate, [3H]-UTP incorporation, 30° C., 90 minutes; read-out: IC50
pIC50: −log10 of the molar value.
PARAMETER: pIC50

| MOLECULE | EXPERIMENTAL RESULT |
| --- | --- |
| CN1CCN(C(=O)c2cc3cccc4c3n2CCCn2c-4c(C3CCCCC3)c3ccc(C(=O)O)cc32)CC1 | 6.94 |
| COc1ccc2c3c1c(CN1CCCCC1)cn3CCCn1c-2c(C2CCCCC2)c2ccc(C(=O)O)cc21 | 6.43 |
| O=C(O)c1ccc2c(C3CCCCC3)c3n(c2c1)CCCn1cc(/C(Cl)=C/CN2CCCCC2)c2cccc-3c21 | 6.70 |
| O=C(O)c1ccc2c(C3CCCCC3)c3n(c2c1)CCCn1cc(CNC2CC2)c2cccc-3c21 | 6.68 |
| CN(C)C1CCN2CCn3c(c(C4CCCCC4)c4ccc(C(=O)O)cc43)-c3cccc1c32 (stereo not shown) | 7.10 |
| O=C(NC1CC1)c1ccc2c(C3CCCCC3)c3n(c2c1)CCCn1cc(CN2CCCCC2)c2cccc-3c21 | 6.44 |
| O=C(O)c1ccc2c(C3CCCCC3)c3n(c2c1)CCCn1cc(CN2CCOCC2)c2cccc-3c21 | 7.72 |
